Assay explanation: Dyad photophysical properties in toluene, excited at 405 nm
Assay type: physicochemical
Assay context: room temperature
Measure: abs max B (nm)
The response must be a number in nm with no trailing unit.

Worked cases, answers included:
Compound | U | Reported result
COC(=O)c1ccc(C#Cc2cc3cc4nc(cc5[nH]c(cc6nc(c(OC)c2[nH]3)CC6(C)C)cc5C#Cc2ccc(-c3c5nc(cc6ccc(cc7nc(cc8ccc3[nH]8)C=C7)[nH]6)C=C5)cc2)CC4(C)C)cc1 [Dyad P1-BC1] | nm | 405
COC(=O)c1ccc(-c2c3nc(cc4ccc(cc5nc(cc6[nH]c2cc6C#Cc2ccc(CNC(=O)c6ccc(-c7c8nc(cc9ccc([nH]9)c(-c9c(C)cc(C)cc9C)c9nc(cc%10ccc7[nH]%10)C=C9)C=C8)cc6)cc2)CC5(C)C)[nH]4)C=C3)cc1 [Dyad P5-C3] | nm | 409

Sample COC(=O)c1ccc(-c2c3nc(cc4[nH]c(cc5nc(cc6[nH]c2cc6C#Cc2ccc(-c6c7nc(cc8ccc(cc9nc(cc%10ccc6[nH]%10)C=C9)[nH]8)C=C7)cc2)CC5(C)C)cc4C#Cc2ccc(-c4c5nc(cc6ccc(cc7nc(cc8ccc4[nH]8)C=C7)[nH]6)C=C5)cc2)C=C3)cc1 [Dyad P1-C6] ; abs max B observed: 406

Sample COC(=O)c1ccc(-c2c3nc(cc4[nH]c(cc5nc(cc6[nH]c2cc6-c2ccc(CNC(=O)c6ccc(C7=C8C=CC(=N8)C=c8ccc9[n]8[Zn][n]8c(ccc87)C=C7C=CC(=N7)C=9)cc6)cc2)CC5(C)C)cc4-c2ccccc2)C=C3)cc1 [P2-C1, methyl ester] ; abs max B observed: 407

Sample COC(=O)c1c(C#Cc2ccc(-c3c4nc(cc5ccc(cc6nc(cc7ccc3[nH]7)C=C6)[nH]5)C=C4)cc2)c2cc3nc(c(OC)c4[nH]c(cc5nc(cc1[nH]2)CC5(C)C)c(C#Cc1ccc(-c2c5nc(cc6ccc(cc7nc(cc8ccc2[nH]8)C=C7)[nH]6)C=C5)cc1)c4C(=O)OC)CC3(C)C [Dyad P1-BC2] ; abs max B observed: 405

Sample COC(=O)c1ccc(-c2c(C(=O)OC)c3cc4nc(cc5[nH]c(c(OC)c6nc(cc2[nH]3)C(C)(C)C6)c(C(=O)OC)c5C#Cc2ccc(C3=C5C=CC(=N5)C=c5ccc6[n]5[Zn][n]5c(ccc53)C=C3C=CC(=N3)C=6)cc2)C(C)(C)C4)cc1 [Dyad P8-BC2] ; abs max B observed: 408

Sample COC(=O)c1ccc(-c2c3nc(cc4ccc(cc5nc(cc6[nH]c2cc6C#Cc2ccc(C6=C7C=CC(=N7)C=c7ccc8[n]7[Zn][n]7c(ccc76)C=C6C=CC(=N6)C=8)cc2)CC5(C)C)[nH]4)C=C3)cc1 [P8-C2, methyl ester] ; abs max B observed: 408

----------
Assay explanation: Dyad photophysical properties in toluene, excited at 405 nm
Format: physicochemical
Assay context: room temperature, excited at 405 nm
Measure: em max (nm)
The response must be a number in nm with no trailing unit.

Worked cases, answers included:
Compound | U | em max
COC(=O)c1ccc(-c2c3nc(cc4[nH]c(cc5nc(cc6[nH]c2cc6C#Cc2ccc(-c6c7nc(cc8ccc(cc9nc(cc%10ccc6[nH]%10)C=C9)[nH]8)C=C7)cc2)CC5(C)C)cc4C#Cc2ccc(-c4c5nc(cc6ccc(cc7nc(cc8ccc4[nH]8)C=C7)[nH]6)C=C5)cc2)C=C3)cc1 [Dyad P1-C6] | nm | 682
COC(=O)c1ccc(-c2c3nc(cc4[nH]c(cc5nc(cc6[nH]c2cc6-c2ccc(CNC(=O)c6ccc(-c7c8nc(cc9ccc([nH]9)c(-c9c(C)cc(C)cc9C)c9nc(cc%10ccc7[nH]%10)C=C9)C=C8)cc6)cc2)CC5(C)C)cc4-c2ccccc2)C=C3)cc1 | nm | 656
COC(=O)c1ccc(-c2c3nc(cc4ccc(cc5nc(cc6[nH]c2cc6C#Cc2ccc(CNC(=O)c6ccc(C7=C8C=CC(=N8)C=c8ccc9[n]8[Zn][n]8c(ccc87)C=C7C=CC(=N7)C=9)cc6)cc2)CC5(C)C)[nH]4)C=C3)cc1 | nm | 659

In the following, a different compound is considered.
Sample "COC(=O)c1ccc(-c2c3nc(cc4ccc(cc5nc(cc6[nH]c2cc6C#Cc2ccc(-c6c7nc(cc8ccc([nH]8)c(-c8c(C)cc(C)cc8C)c8nc(cc9ccc6[nH]9)C=C8)C=C7)cc2)CC5(C)C)[nH]4)C=C3)cc1" ; em max observed: 660
